assay: Measurement of pKa of compound β in ground state (acid titration, 0.1 N HCl, methanol/water); conditions: methanol/water mixture, pKa in ground state, compound β; pKa of the conjugate acid for nitrogen-containing aromatic compounds
Below, each entry is listed alongside its reported pKa.
experimental-readout: pKa

>>> df
                  structure_smiles  assay_value
0            O=C(c1ccccc1)c1ccncc1          2.9
1  c1ccc(-c2c3ccccc3nc3ccccc23)cc1         4.04
2                   c1ccc2ncccc2c1          4.2
3             c1ccc2nc3ccccc3cc2c1          4.7

====

assay: Measurement of ε365 and ε365/ε313 of compound β (molar absorption coefficients in acetonitrile); type: physicochemical; conditions: compound β alone
experimental-readout: ε365 of Compound β

>>> print(df.to_string())
                                   compound  assay_value
0          c1ccncc1 [Example B11, pyridine]          <10
1  c1ccc2nc3ccccc3cc2c1 [Example B3, acridine]         4900
2  Nc1ccncc1 [Example 4-Aminopyridine, 4-Aminopyridine]         <100

====

assay: Measurement of ε365 and ε365/ε313 of compound β (molar absorption coefficients in acetonitrile); format: physicochemical; design: key: molar absorption coefficient at 365 nm in (cm·mol/L)^−1; details: molar absorption coefficient at 365 nm, compound β alone
experimental-readout: ε365 of Compound β

>>> df
                  structure_smiles  assay_value
0               CCCCc1nccc2ccccc12          <10
1            Cc1c2ccccc2nc2ccccc12         6300
2                         c1ccncc1          <10
3                  Cc1nccc2ccccc12          <10
4  c1ccc(-c2c3ccccc3nc3ccccc23)cc1        >1000
5              COc1cc(C)nc2ccccc12          <10

====

experiment: Measurement of ε365 and ε365/ε313 of compound β (molar absorption coefficients in acetonitrile); type: physicochemical; details: molar absorption coefficient at 365 nm in acetonitrile
experimental-readout: ε365 of Compound β

>>> df
        structure_smiles         assay_value
0               c1ccncc1   <10 (cm·mol/L)^−1
1    COc1cc(C)nc2ccccc12   <10 (cm·mol/L)^−1
2  Cc1c2ccccc2nc2ccccc12  6300 (cm·mol/L)^−1
3         c1ccc2cnccc2c1   <10 (cm·mol/L)^−1
4   c1ccc2nc3ccccc3cc2c1  4900 (cm·mol/L)^−1
5        Cc1nccc2ccccc12   <10 (cm·mol/L)^−1
6     CCCCc1nccc2ccccc12   <10 (cm·mol/L)^−1

====

ε365 of Compound β listing for selected compounds.
assay: Measurement of ε365 and ε365/ε313 of compound β (molar absorption coefficients in acetonitrile); assay type: physicochemical; design: key: molar absorption coefficient at 365 nm in (cm·mol/L)^−1; conditions: molar absorption coefficient at 365 nm
experimental-readout: ε365 of Compound β

In [3]: df
Out[3]:
       structure_smiles  assay_value
0       Cc1nccc2ccccc12          <10
1  c1ccc2nc3ccccc3cc2c1         4900
2        c1ccc2ncccc2c1          <10
3             Nc1ccncc1         <100
4   COc1cc(C)nc2ccccc12          <10
5    CCCCc1nccc2ccccc12          <10
6            Clc1ccccn1          <10

====

experiment: Measurement of ε365 and ε365/ε313 of compound β (molar absorption coefficients in acetonitrile); assay type: physicochemical; set-up: key: molar absorption coefficient at 365 nm in (cm·mol/L)^−1
experimental-readout: ε365 of Compound β

>>> df
                                   molecule  experimental_readout  assay_value
0  CCCCc1ncc(C)c2ccccc12 [Example 1-n-Butyl-4-methylisoquinoline, 1-n-Butyl-4-methylisoquinoline]    ε365 of Compound β          <10
1  Cc1cc(C)c2ccccc2n1 [Example B12, 2,4-dimethylquinoline]    ε365 of Compound β          <10
2  CCCCc1nccc2ccccc12 [Example 1-n-Butylisoquinoline, 1-n-Butylisoquinoline]    ε365 of Compound β          <10
3    c1ccc2ncccc2c1 [Example B2, quinoline]    ε365 of Compound β          <10
4  c1ccc2cnccc2c1 [Example B1, isoquinoline]    ε365 of Compound β          <10
5          c1ccncc1 [Example B11, pyridine]    ε365 of Compound β          <10
6  COc1cc(C)nc2ccccc12 [Example 2-Methyl-4-methoxyquinoline, 2-Methyl-4-methoxyquinoline]    ε365 of Compound β          <10

====

test: Measurement of pKa of compound β in ground state (acid titration, 0.1 N HCl, methanol/water); settings: methanol/water mixture, pKa of Compound β in ground state, ground state
A collection of compounds and their measured pKa
experimental-readout: pKa

In [3]: df
Out[3]:
           structure_smiles  assay_value
0  Cc1cc(C)c2c(C)cc(C)nc2c1         6.23
1            c1ccc2ncccc2c1         4.15
2      c1ccc2nc3ccccc3cc2c1         4.67
3        Cc1cc(C)c2ccccc2n1         5.67
4     Cc1c2ccccc2nc2ccccc12          5.4
5        CCCCc1nccc2ccccc12         5.27
6     CCCCc1ncc(C)c2ccccc12          5.9
7                 Nc1ccncc1          9.2
8            c1ccc2cnccc2c1         4.69

====

test: Measurement of ε365 and ε365/ε313 of compound β (molar absorption coefficients in acetonitrile); format: physicochemical; set-up: key: molar absorption coefficient at 365 nm in (cm·mol/L)^−1; details: molar absorption coefficient at 365 nm, in acetonitrile
In this section we review reported ε365 of Compound β values for a set of compounds.
experimental-readout: ε365 of Compound β

                                   compound  experimental_readout         assay_value
0  Clc1ccccn1 [Example 2-Chloropyridine, 2-Chloropyridine]    ε365 of Compound β   <10 (cm·mol/L)^−1
1  c1ccc2nc3ccccc3cc2c1 [Example B3, acridine]    ε365 of Compound β  4900 (cm·mol/L)^−1
2  Cc1cc(C)c2ccccc2n1 [Example B12, 2,4-dimethylquinoline]    ε365 of Compound β   <10 (cm·mol/L)^−1
3  Nc1ccncc1 [Example 4-Aminopyridine, 4-Aminopyridine]    ε365 of Compound β  <100 (cm·mol/L)^−1

The origin of these recorded values is patent US20230038201A1.
